From: patent US6949648B2

{"compound": "O=c1c2ccccc2[nH]c2c1cnn2-c1ccccn1 [Example 2-159]", "melting point": "240 to 242 °C"}
{"compound": "CNc1c2ccccc2nc2c1c(C)nn2-c1ccccn1.Cl [Example 1-37]", "melting point": "229 to 232 °C"}
{"compound": "Cc1nn(-c2ccccn2)c2nc3c(F)cccc3c(Cl)c12 [Example 2-84]", "melting point": "191 °C"}
{"compound": "Cc1nn(-c2ccccn2)c2nccc(OCc3ccccc3)c12 [Example 1-32]", "melting point": "108 to 110 °C"}
{"compound": "CCOc1c2ccccc2nc2c1c(C)nn2-c1ccccn1 [Example 2-16]", "melting point": "121 to 123 °C"}
{"compound": "Cc1nn(-c2ccccn2)c2nc3ccccc3c(C)c12 [Example 2-101]", "melting point": "157 to 159 °C"}
{"compound": "Cc1nn(-c2ccccn2)c2ncc(C(=O)Nc3ccc(F)c(F)c3)c(O)c12 [Example 1-15]", "melting point": "> 300 °C"}
{"compound": "Cc1nn(Cc2ccccn2)c2nc3ccccc3c(Cl)c12 [Example 2-186]", "melting point": "113 to 115 °C"}
{"compound": "Cc1nn(-c2ccccn2)c2nc3ccccc3c(N)c12.Cl [Example 1-36]", "melting point": "268 to 271 °C"}
{"compound": "CCCCc1c2ccccc2nc2c1c(C)nn2-c1ccccn1 [Example 2-104]", "melting point": "102 to 103 °C"}
{"compound": "O=c1c2ccccc2[nH]c2c1c(C(F)(F)F)nn2-c1ccccn1 [Example 2-167]", "melting point": "231 to 233 °C"}
{"compound": "Cl.Nc1c2ccccc2nc2c1cnn2-c1ccccn1 [Example 1-67]", "melting point": "312 to 315 °C"}
{"compound": "Cc1nn(-c2nccs2)c2nc3ccccc3c(N)c12 [Example 2-150]", "melting point": "261 to 263 °C"}
{"compound": "COc1ccc(-c2nn(-c3ccccn3)c3[nH]c4ccccc4c(=O)c23)cc1 [Example 2-185]", "melting point": "197 to 199 °C"}
{"compound": "Cc1nn(-c2ncccn2)c2nc3ccccc3c(N)c12.Cl", "melting point": "287 to 290 °C"}
{"compound": "Cc1nn(-c2ccccn2)c2[nH]c3cc(Cl)c(F)cc3c(=O)c12 [Example 2-97]", "melting point": "264 to 265 °C"}
{"compound": "Cc1cccc2nc3c(c(C)nn3-c3ccccn3)c(Cl)c12 [Example 2-29]", "melting point": "167 to 169 °C"}
{"compound": "CCOC(=O)c1nn(-c2ccccn2)c2[nH]c3ccccc3c(=O)c12 [Example 2-180]", "melting point": "183 to 186 °C"}
{"compound": "Cc1nn(-c2ccccn2)c2ncc(C(=O)NC3CCCCC3)c(O)c12 [Example 1-8]", "melting point": "> 300 °C"}
{"compound": "Cc1nn(-c2ccccn2)c2nc3ccsc3c(Cl)c12 [Example 2-155]", "melting point": "230 to 231 °C"}
